experiment: chemical genetic growth profiling, strain panel (AID 1159580);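 also: tested at 20 µM; growth read once vehicle control cultures reached saturation at 30 °C; 1 = growth at the plate median or of vehicle wells; lower values mean less growth of the strain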; conditions: S. cerevisiae deletion strains, growth OD, locus YIL073C, strain SPO22
Among all 5,500 compounds or so, about 2,000 (36%) were called active. Roughly 18% stayed inconclusive and do not appear here. Rule as the data show it: active = normalized growth mostly below about 0.91 (no sharp cut-off); inconclusive = no clear call, values can overlap the other calls; inactive = mostly above about 0.92. The list shows a part of the results.
Thanks in advance; please answer with one of these: true (1) (active), false (0) (inactive)

Compound: COc1cc(Cc2cnc(N)nc2N)cc(OC)c1OC
Class Assignment: false (0)

Q: Please let me know the test result on file for C=C[C@H]1CN2CC[C@H]1C[C@H]2[C@H](O)c1ccnc2ccccc12 .
Ans: false (0)

Q: Test call, this compound: C[N+]12CCC(CC1)C(OC(=O)C(O)(c1ccccc1)c1ccccc1)C2 (configuration not stated)
Ans: false (0)

Q: # outcome recorded in this test, key = COC(=O)C(O)[C@H]1C(C)(C)[C@@H](OC(C)=O)[C@@H]2CC3=C4CC(=O)O[C@@H](c5ccoc5)[C@]4(C)CCC3[C@@]1(C)C2=O (some centres not stated)
Ans: false (0)

Q: Field: outcome | Entry: COc1cc(O)ccc1C(C)=O
Ans: false (0)

Q: Tell me the recorded outcome of this test for ClC1C(Cl)C(Cl)C(Cl)C(Cl)C1Cl (configuration not stated) .
Ans: false (0)

Q: What outcome does the record of this test show for CN(C)CCC[C@@]1(c2ccc(F)cc2)OCc2cc(C#N)ccc21 ?
Ans: false (0)

Q: Each compound tested received a call. Report the one for CC(C)OC(=O)Nc1cccc(Cl)c1 .
Ans: false (0)

Q: Outcome? O=C1c2cccc(O)c2C(=O)c2c(O)cccc21
Ans: false (0)

Q: Record lookup: outcome of this test for CC1(C)CC23C(=O)CCC(O)C2(C)CCC13 (configuration not stated) ?
Ans: false (0)

Q: Just curious, what result did O=c1c(O)c(-c2ccccc2)oc2ccc3occc3c12 get here?
Ans: false (0)

Q: State the result this test recorded for CC(C)N1C(=O)c2ccccc2NS1(=O)=O .
Ans: false (0)

Q: Could you please tell me the result logged for Cn1c(=O)c2c(ncn2CCO)n(C)c1=O in this assay?
Ans: false (0)

Q: # fetch the recorded call for COc1ccc(-c2c(O)c3c(OC)c4c(cc3oc2=O)OC(C)(C)C=C4)cc1 here
Ans: false (0)

Q: Which outcome was assigned to COc1ccc([C@@H](C)C(=O)c2ccc(O)cc2O)cc1 in this test?
Ans: false (0)

Q: Could you check what this test reported for CC(NC(C)(C)C)C(=O)c1cccc(Cl)c1 (configuration not stated) ?
Ans: false (0)

Q: Assay outcome for CC(C)[C@@H]1CC[C@@H](C)CC1=O : what was it?
Ans: false (0)

* * *

assay: chemical genetic growth profiling, strain panel (AID 1159580);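 also: tested at 20 µM; growth read once vehicle control cultures reached saturation at 30 °C; 1 = growth at the plate median or of vehicle wells; lower values mean less growth of the strain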; details: S. cerevisiae deletion strains, growth OD, locus YML120C, strain ndi1, hits give low values
Screen size: about 5,500 compounds; about 2,000 (36%) were called active. Inconclusive results (about 18%) are left out. Some of the results follow.
Measure: normalized growth
One number for each entry.

Record excerpt, results attached:
Compound: O=C1NS(=O)(=O)c2ccccc21
Endpoint Result: 0.995
//
Compound: O=C(N[C@@H](CO)[C@H](O)c1ccc([N+](=O)[O-])cc1)C(Cl)Cl
Endpoint Result: 1
//
Compound: CNC(C)(C)Cc1ccccc1
Endpoint Result: 1.02

Would you mind giving normalized growth for every compound in the list below?
1. CC(C)N1C(=O)c2ccccc2NS1(=O)=O
2. Cn1c(=O)[nH]c2nc[nH]c2c1=O
3. O=C1c2ccccc2C(=O)c2ccccc21
4. COC(=O)C[C@H]1C(C)(C)[C@@H](OC(C)=O)[C@@H]2CC3=C4CC(=O)O[C@@H](c5ccoc5)[C@]4(C)CCC3[C@@]1(C)C2=O (stereo partly specified)
5. O=C(O)[C@H]1/C(=C/CO)O[C@@H]2CC(=O)N21

Ans:
1. 0.956
2. 1
3. 1.01
4. 1.01
5. 0.997

Fill in normalized growth for each of the 7 compounds listed.
1. CC(=O)OCC1=C(C(=O)O)N2C(=O)[C@@H](NC(=O)CSc3ccncc3)[C@H]2SC1
2. CC12CCC(O)CC1CCc1ccccc12 (stereo unspecified)
3. CNC(C)[C@@H]1CC[C@@H](N)[C@@H](OC2[C@@H](N)C[C@@H](N)[C@H](OC3OC[C@](C)(O)[C@H](NC)[C@H]3O)[C@H]2O)O1 (stereo partly specified)
4. CC(=O)c1ccc[nH]1
5. O=C1C=C(O)c2ccccc2C1=O
6. CC(=O)Oc1c(C)c(C)c2c(c1C)CCC(C)(CCCC(C)CCCC(C)CCCC(C)C)O2 (stereo unspecified)
7. NNCc1ccccc1

Ans:
1.03
0.955
0.996
1.01
0.93
1.01
0.979

# map each compound to its normalized growth
1. COc1ccccc1OCC(O)COC(N)=O (stereo unspecified)
2. O=C1C=CC(=O)c2ccccc21
3. ClC1C(Cl)C(Cl)C(Cl)C(Cl)C1Cl (stereo unspecified)
4. CC(=O)NC1C(O)OC(COS(=O)(=O)O)C(OC2OC(C(=O)O)C(OC3OC(CO)C(OC4OC(C(=O)O)C(O)C(O)C4OS(=O)(=O)O)C(OS(=O)(=O)O)C3NS(=O)(=O)O)C(O)C2OS(=O)(=O)O)C1O (stereo unspecified)
5. CO/N=C(/C(=O)NC1C(=O)N2C(C(=O)OCOC(=O)C(C)(C)C)=C(/C=C\c3scnc3C)CSC12)c1csc(N)n1 (stereo unspecified)
6. Cn1c(=O)c2c(ncn2C)n(C)c1=O
7. O=C(/C=C/c1ccc(O)cc1)c1ccc(O)cc1O

Ans:
[0.958, 0.827, 0.978, 0.981, 0.995, 0.926, 0.995]

Record normalized growth per entry; entries follow.
1. NC(Cc1ccc(Cl)cc1)C(=O)O (stereo unspecified)
2. C[C@H]1C(=O)CCC2[C@]3(C)CC[C@@]4(C)C5CC(C)(C)CC[C@]5(C)CC[C@]4(C)C3CC[C@@]21C (stereo partly specified)
3. CC(=O)NS(=O)(=O)c1ccc(N)cc1

Ans:
1: 0.993; 2: 0.998; 3: 1.01

Provide normalized growth values for the following items, in order.
1. COc1ccc(NS(=O)(=O)c2ccc(N)cc2)nn1
2. CN1CCCCC1c1ccc(-c2cccnc2)nc1 (stereo unspecified)
3. O=C(O)c1cccnc1C(=O)O
4. O=c1c(O)c(-c2ccccc2)oc2cccc(O)c12
5. COc1ccc(CC(=O)c2ccc(O)cc2O)cc1
6. O=C(O)C1=C(CSc2nnnn2CS(=O)(=O)O)CS[C@@H]2C(NC(=O)[C@H](O)c3ccccc3)C(=O)N12 (stereo partly specified)
7. CC12CCC(OC(=O)c3ccccc3)CC1CCc1ccccc12 (stereo unspecified)

Ans:
1. 1
2. 0.984
3. 1
4. 0.828
5. 0.988
6. 0.958
7. 1

Field: normalized growth. Fill in for each record below.
1. O=C(O)CC[N+](=O)[O-]
2. CC1=C(C(=O)O)N2C(=O)[C@@H](NC(=O)[C@@H](N)c3ccc(O)cc3)[C@H]2SC1
3. O=C1C=CC(=O)c2c(O)c(Cl)c(Cl)c(O)c21
4. CCC1(C2=NCCN2)Cc2ccccc2O1 (stereo unspecified)
5. C=C[C@H]1CN2CC[C@H]1C[C@H]2[C@H](O)c1ccnc2ccccc12
6. OC[C@H]1O[C@@H](Oc2ccc(O)cc2)[C@H](O)[C@@H](O)[C@@H]1O
7. COc1ccc([C@@H](C)C(=O)c2ccc(O)cc2O)cc1
8. CC(=O)Nc1c(I)cc(I)c(C(=O)O)c1I

Ans:
0.999
1.03
0.928
1.01
0.992
1.01
0.976
0.981

// each listed compound needs a value for normalized growth
1. NC(=NCCCCCCN=C(N)N=C(N)Nc1ccc(Cl)cc1)N=C(N)Nc1ccc(Cl)cc1
2. COc1cc(O)ccc1C(C)=O

Ans:
1. 0.0569
2. 1.02

Below are 2 compounds. Give each one its normalized growth.
1. Oc1cc2c(cc1O)C(c1ccccc1)CNCC2 (stereo unspecified)
2. O=C(Nc1ccc([N+](=O)[O-])cc1Cl)c1cc(Cl)ccc1O

Ans:
[0.94, 0.975]

Answer for every listed entry: what is its normalized growth? The entries follow.
1. Cn1c(=O)c2c(ncn2CCO)n(C)c1=O
2. CC(=CC1CCC(C)C2C1=C(C)CC2O)C(=O)O (stereo unspecified)

Ans:
1. 0.986
2. 1.02

Data origin: PubChem BioAssay AID1159580
